SYSTEM TESTED: trypsin
TEST SUMMARY: TRF, 10 ug/mL Fab on trypsin
VALUE KIND: TRF signal

INSERT INTO results (binder, value_kind, result) VALUES
  ('KB_A09 Fab (Fab, V domains shown) VH: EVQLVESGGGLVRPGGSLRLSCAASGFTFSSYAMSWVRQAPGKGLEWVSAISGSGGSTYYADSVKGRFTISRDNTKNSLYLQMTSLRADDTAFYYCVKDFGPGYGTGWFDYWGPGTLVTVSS VL: AVNWYQQLPGKAPKLLIYAAERCPRILMRCKQDSDCLAGCVCGPNGFCGTPSGVPDRFSGSIDTFSNSASLTISGLKTEDEADYYCQSYDSSHHWVFGGGTKLTVLG', 'TRF signal', 161000),
  ('KB_C08 Fab (Fab, V domains shown) VH: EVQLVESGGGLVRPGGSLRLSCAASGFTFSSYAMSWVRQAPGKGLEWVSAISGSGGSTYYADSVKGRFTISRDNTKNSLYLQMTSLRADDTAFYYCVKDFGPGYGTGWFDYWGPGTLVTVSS VL: AVNWYQQLPGKAPKLLIYAAAVCPRILMRCKQDSDCLAGCVCGPNGFCGTRSGIPERFSGSKSGTSAFLAISGLRSEDEADYYCAAWDDSLSGVVFGGGTKLTVLG', 'TRF signal', 183000),
  ('KB_A07 Fab (Fab, V domains shown) VH: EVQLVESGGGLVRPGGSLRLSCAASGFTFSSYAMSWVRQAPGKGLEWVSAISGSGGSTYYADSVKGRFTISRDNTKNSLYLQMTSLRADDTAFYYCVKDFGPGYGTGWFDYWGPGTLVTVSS VL: YLNWYQQKPGKAPKLLIYAAGVCPRILMRCKQDSDCLAGCVCGPNGFCGSRSGVPSRFSGSGSGTDFTLTISSLQPEDFATYYCQQGASPPYTFGQGTKVEIKR', 'TRF signal', 226000),
  ('KB_A02 Fab (Fab, V domains shown) VH: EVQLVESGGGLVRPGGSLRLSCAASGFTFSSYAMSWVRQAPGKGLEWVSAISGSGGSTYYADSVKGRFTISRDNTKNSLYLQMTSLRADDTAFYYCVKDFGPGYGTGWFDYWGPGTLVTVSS VL: AVNWYQQLPGKAPKLLIYAAAKCPRILMRCKQDSDCLAGCVCGPNGFCGGASGVSDRFSGSIDSSSNSASLTISGLKPEDEGDYYCQSYDSSNRWVFGGGTKVTVLG', 'TRF signal', 255000);
